Sourced from patent US9409952B2

assay: PAMPA (parallel artificial membrane permeability assay); format: in vitro ADME; details: PAMPA; membrane permeation rate (Pe); 50 mM MOPSO buffer pH 6.5 with 5.0% glycocholic acid, 37° C., 18 hours; read-out: iPAMPA Pe
Starred links: 1 amine or outer side, 2 acyl side, 3 side chain; linkers in the order of their positions; H or OH if unused. Positions of bridges follow the written chain, without caps; N, C: chain ends. Non-standard residues stand in square brackets, D forms with d. Residues, ends and D or L forms follow the SMILES beside them. *: point of attachment. Phe(4-(CH2)5CO) = O=C([C@H](Cc1ccc(CCCCCC(=O)[*:3])cc1)N[*:1])[*:2]; NMeF = CN[C@@H](Cc1ccccc1)C(=O)O; NMeI = CC[C@H](C)[C@H](NC)C(=O)O; NMeL = CN[C@@H](CC(C)C)C(=O)O; NMeV = CN[C@H](C(=O)O)C(C)C; NMeS = CN[C@@H](CO)C(=O)O; Piperidide = C1CCN(*)CC1; β3hA = C[C@H](N)CC(=O)O; Sar = CNCC(=O)O; tBu = CC(C)(C)*
MEASUREMENT NAME: Papp at 18 hours, 50 µM
Note: a bare number is incomplete; add the unit.

CC(C)C[C@@H]1NC(=O)[C@H](CC(C)C)N(C)C(=O)[C@H](C(C)C)NC(=O)[C@H](CC(C)C)N(C)C(=O)CN(C)C(=O)[C@H](CC(C)C)NC(=O)[C@H](CO)N(C)C(=O)[C@H](CC(C)C)N(C)C(=O)[C@H](CC(C)C)N(C)C(=O)C[C@H](C)NC(=O)[C@@H](CC(C)C)NC1=O [DP-642] (cyclo(L[Sar][NMeL]V[NMeL]L[dL][β3hA][NMeL][NMeL][NMeS])) : 32 ×10⁻⁶ cm/s
CC[C@H](C)[C@@H]1NC(=O)[C@H](Cc2ccccc2)N(C)C(=O)[C@@H](C)NC(=O)C[C@@H](C(=O)N2CCCCC2)NC(=O)[C@H](C(C)C)N(C)C(=O)[C@H](Cc2ccccc2)N(C)C(=O)[C@H](COC(C)(C)C)NC(=O)[C@H](CC(C)C)N(C)C(=O)CN(C)C(=O)[C@H]([C@@H](C)O)NC(=O)[C@H](CC(C)C)N(C)C1=O [DP-110] ([dA][NMeF]I[NMeL]T[Sar][NMeL]S(tBu)[NMeF][NMeV]D-Piperidide; lactam N-11) : 30 ×10⁻⁶ cm/s

Kindly consider the entry below.
Look up Papp at 18 hours, 50 µM for this molecule: CC[C@H](C)[C@H]1C(=O)N[C@@H](COC(C)(C)C)C(=O)N(C)[C@@H](Cc2ccccc2)C(=O)N(C)[C@@H](C(C)C)C(=O)N[C@H](C(=O)N2CCCCC2)Cc2ccc(cc2)CCCCCC(=O)N(C)[C@@H](Cc2ccccc2)C(=O)N[C@@H](CC(C)C)C(=O)N(C)[C@@H](CC(C)C)C(=O)N[C@@H]([C@@H](C)O)C(=O)N(C)CC(=O)N1C [DP-852] ([NMeF]L[NMeL]T[Sar][NMeI]S(tBu)[NMeF][NMeV][Phe(4-(CH2)5CO)]-Piperidide; lactam N-10)
0.7 ×10⁻⁶ cm/s

----------
assay: PAMPA (parallel artificial membrane permeability assay); assay type: in vitro ADME; conditions: PAMPA; membrane permeation rate (Pe); 50 mM MOPSO buffer pH 6.5 with 5.0% glycocholic acid, 37° C., 18 hours; read-out: iPAMPA Pe
Starred links: 1 amine or outer side, 2 acyl side, 3 side chain; linkers in the order of their positions; H or OH if unused. Positions of bridges follow the written chain, without caps; N, C: chain ends. Non-standard residues stand in square brackets, D forms with d. Residues, ends and D or L forms follow the SMILES beside them. *: point of attachment. NMeF = CN[C@@H](Cc1ccccc1)C(=O)O; NMeβAla = CN(CCC(=O)[*:2])[*:1]; NMeL = CN[C@@H](CC(C)C)C(=O)O; Piperidide = C1CCN(*)CC1; Sar = CNCC(=O)O
MEASUREMENT NAME: Papp at 18 hours, 50 µM (×10⁻⁶ cm/s)
Express it in ×10⁻⁶ cm/s; write the number only.

CC(C)C[C@H]1C(=O)N(C)[C@@H](CC(C)C)C(=O)N(C)[C@@H](Cc2ccccc2)C(=O)N(C)[C@@H](CC(C)C)C(=O)N[C@H](C(=O)N(C)[C@@H](Cc2ccccc2)C(=O)N[C@@H](C)C(=O)N2CCCCC2)CC(=O)N(C)CC(=O)N[C@@H]([C@@H](C)O)C(=O)N(C)[C@@H](Cc2ccccc2)C(=O)N(C)[C@@H](CC(C)C)C(=O)N[C@@H](C)C(=O)N1C [DP-493] ([Sar]T[NMeF][NMeL]A[NMeL][NMeL][NMeF][NMeL]D[NMeF]A-Piperidide; lactam N-10) : 2.4

Quick check: Papp at 18 hours, 50 µM of CC[C@H](C)[C@H](NC(=O)[C@H](Cc1ccccc1)N(C)C(=O)[C@H](Cc1ccccc1)N(C)C(=O)[C@@H]1CC(=O)N(C)CCC(=O)N[C@@H]([C@@H](C)CC)C(=O)N(C)[C@@H](Cc2ccccc2)C(=O)N(C)[C@@H](CC(C)C)C(=O)N[C@@H]([C@@H](C)O)C(=O)N(C)CC(=O)N(C)[C@@H](CC(C)C)C(=O)N[C@@H](C(C)C)C(=O)N(C)[C@@H](CC(C)C)C(=O)N1)C(=O)N1CCCCC1 [DP-961] ([NMeβAla]I[NMeF][NMeL]T[Sar][NMeL]V[NMeL]D[NMeF][NMeF]I-Piperidide; lactam N-10) ?
0.57

----------
assay: Metabolic stability in human hepatic microsome; assay type: in vitro ADME; conditions: microsomes, pH 7.4; human hepatic microsome, NADPH(+); read-out: CL NADPH(+)
Positions of bridges follow the written chain, without caps; N, C: chain ends. Non-standard residues stand in square brackets, D forms with d. Residues, ends and D or L forms follow the SMILES beside them. *: point of attachment. NMePhe(3-Cl) = CN[C@@H](Cc1cccc(Cl)c1)C(=O)O; NMeF = CN[C@@H](Cc1ccccc1)C(=O)O; NMeI = CC[C@H](C)[C@H](NC)C(=O)O; NMeL = CN[C@@H](CC(C)C)C(=O)O; NMeA = CN[C@@H](C)C(=O)O; Piperidide = C1CCN(*)CC1; tBu = CC(C)(C)*
MEASUREMENT NAME: microsomal CLint at 1 uM (µL/min/mg)
Express it in µL/min/mg; write the number only.

Past entries and their recorded results:
CC[C@H](C)[C@H]1C(=O)N(C)[C@@H](C)C(=O)N(C)[C@@H](Cc2ccccc2)C(=O)N[C@@H]([C@@H](C)O)C(=O)N(C)[C@@H](Cc2ccccc2)C(=O)N(C)[C@@H](CC(C)C)C(=O)N2CCC[C@H]2C(=O)N[C@H](C(=O)N2CCCCC2)CC(=O)N[C@@H](C)C(=O)NCC(=O)N(C)[C@@H](CC(C)C)C(=O)N1C [DP-16] (AG[NMeL][NMeI][NMeA][NMeF]T[NMeF][NMeL]PD-Piperidide; lactam N-11) : 74
CC(C)C[C@H]1C(=O)N[C@H](C(=O)N2CCCCC2)CC(=O)N[C@H](C)C(=O)N(C)[C@@H](Cc2ccccc2)C(=O)N(C)[C@@H](CC(C)C)C(=O)N[C@@H]([C@@H](C)O)C(=O)N(C)[C@@H](CC(C)C)C(=O)N[C@@H](COC(C)(C)C)C(=O)N1C [DP-684] ([dA][NMeF][NMeL]T[NMeL]S(tBu)[NMeL]D-Piperidide; lactam N-8) : 126

Please look at the following compound next.
Given the entry CC[C@H](C)[C@H](NC(=O)[C@H](Cc1ccccc1)N(C)C(=O)[C@H](C)N(C)C(=O)[C@@H](NC(=O)[C@@H]1CC(=O)N[C@@H](C)C(=O)N[C@@H]([C@@H](C)O)C(=O)N(C)[C@@H](CC(C)C)C(=O)N[C@@H](C(C)C)C(=O)N(C)[C@@H](Cc2cccc(Cl)c2)C(=O)N(C)[C@@H](CC(C)C)C(=O)N[C@@H](Cc2ccccc2)C(=O)N1)[C@@H](C)CC)C(=O)N1CCCCC1 [DP-928] (AT[NMeL]V[NMePhe(3-Cl)][NMeL]FDI[NMeA][NMeF]I-Piperidide; lactam N-8) , report its measured microsomal CLint at 1 uM.
60

----------
The reader will find reported microsomal CLint at 1 uM values listed item by item below.
assay: Metabolic stability in human hepatic microsome; assay type: in vitro ADME; details: microsomes, pH 7.4; human hepatic microsome, NADPH(+); read-out: CL NADPH(+)
Starred links: 1 amine or outer side, 2 acyl side, 3 side chain; linkers in the order of their positions; H or OH if unused. Positions of bridges follow the written chain, without caps; N, C: chain ends. Non-standard residues stand in square brackets, D forms with d. Residues, ends and D or L forms follow the SMILES beside them. *: point of attachment. NMeF = CN[C@@H](Cc1ccccc1)C(=O)O; NMeI = CC[C@H](C)[C@H](NC)C(=O)O; NMeβAla = CN(CCC(=O)[*:2])[*:1]; NMeL = CN[C@@H](CC(C)C)C(=O)O; NMeA = CN[C@@H](C)C(=O)O; Piperidide = C1CCN(*)CC1; NPrGly = CCCNCC(=O)O; Sar = CNCC(=O)O; tBu = CC(C)(C)*
Please respond with the number in µL/min/mg and leave the unit unwritten.

CC[C@H](C)[C@@H]1NC(=O)[C@H](CC(C)C)N(C)C(=O)[C@H](CC(C)C)N(C)C(=O)CN(C)C(=O)[C@H]([C@@H](C)O)NC(=O)[C@H](CC(C)C)N(C)C(=O)[C@H](CC(C)C)NC(=O)CCN(C)C(=O)C[C@@H](C(=O)N2CCCCC2)NC(=O)[C@H](C)NC(=O)[C@H](Cc2ccccc2)N(C)C(=O)[C@H](Cc2ccccc2)NC(=O)[C@H](CC(C)C)N(C)C1=O [DP-957] ([NMeβAla]L[NMeL]T[Sar][NMeL][NMeL]I[NMeL]F[NMeF]AD-Piperidide; lactam N-13) : 54

Request the reported microsomal CLint at 1 uM associated with CCCN1CC(=O)N[C@@H](COC(C)(C)C)C(=O)N(C)CC(=O)N(C)[C@@H](CC(C)C)C(=O)N[C@@H]([C@@H](C)O)C(=O)N(C)[C@@H](Cc2ccccc2)C(=O)N(C)[C@@H](CC(C)C)C(=O)N(C)[C@@H]([C@@H](C)CC)C(=O)N(C)[C@@H](C)C(=O)N[C@H](C(=O)N2CCCCC2)CC1=O [DP-634] ([NPrGly]S(tBu)[Sar][NMeL]T[NMeF][NMeL][NMeI][NMeA]D-Piperidide; lactam N-10)
32
